# credit: the supplement of paper PMC5844555

System: PHOX2B
experiment.description: 3' UTR reporter interaction score (median-centred robust z-score of log2 firefly/Renilla activity); higher = less repression of the 3' UTR reporter
assay.conditions: HEK293T; 48 h
Returns one of 1 or -1; 1 when 3' UTR reporter interaction score is >= -0.4.

API: above_or_equal(metric=3' UTR reporter interaction score, cutoff=-0.4) for item UAAAUCCCAUGGUGCCUUCUCCU
1

Please check the record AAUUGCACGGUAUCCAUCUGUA and state if its 3' UTR reporter interaction score is at or above -0.4.
-1

Quick check: does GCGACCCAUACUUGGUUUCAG have 3' UTR reporter interaction score greater than or equal to -0.4?
-1

Would you say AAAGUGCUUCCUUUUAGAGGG shows 3' UTR reporter interaction score at minimum -0.4?
1

Given the entry AGGCACGGUGUCAGCAGGC , answer whether its 3' UTR reporter interaction score meets or surpasses -0.4.
1

Is the recorded value of 3' UTR reporter interaction score equal to or greater than -0.4 for this sequence? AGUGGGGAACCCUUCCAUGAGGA
-1

Given the entry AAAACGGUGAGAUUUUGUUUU , answer whether its 3' UTR reporter interaction score meets or surpasses -0.4.
1

Quick check, 3' UTR reporter interaction score >= -0.4? GGUCCAGAGGGGAGAUAGG
-1

Is 3' UTR reporter interaction score at least -0.4? Consider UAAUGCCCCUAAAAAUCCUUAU
1

Reported 3' UTR reporter interaction score reaches at least -0.4 for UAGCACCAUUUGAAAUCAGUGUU ?
-1

Entry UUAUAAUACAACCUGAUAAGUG : is its 3' UTR reporter interaction score no less than -0.4?
1

Identify whether the reported 3' UTR reporter interaction score of the following sequence is -0.4 or greater: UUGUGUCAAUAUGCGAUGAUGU
-1

In plain terms: is recorded 3' UTR reporter interaction score at least -0.4 for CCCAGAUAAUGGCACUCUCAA ?
1

Check the entry UUAAGGCACGCGGUGAAUGCCA : does 3' UTR reporter interaction score equal or exceed -0.4?
1

Evaluate CUCUAGAGGGAAGCACUUUCUCU : 3' UTR reporter interaction score at minimum -0.4?
-1

Reported 3' UTR reporter interaction score at or above -0.4? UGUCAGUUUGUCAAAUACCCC
1

Is 3' UTR reporter interaction score for AGCUACAUCUGGCUACUGGGUCUC at or above -0.4?
1

Given the entry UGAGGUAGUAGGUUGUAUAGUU , answer whether its 3' UTR reporter interaction score meets or surpasses -0.4.
-1

Does 3' UTR reporter interaction score meet or surpass -0.4 for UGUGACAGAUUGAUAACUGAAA ?
1

Hello, I need to know if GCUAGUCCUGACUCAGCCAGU has measured 3' UTR reporter interaction score not below -0.4. Thanks!
1

Hello, I need to know if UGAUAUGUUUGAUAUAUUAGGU has measured 3' UTR reporter interaction score not below -0.4. Thanks!
1

Determine whether measured 3' UTR reporter interaction score meets or exceeds -0.4 for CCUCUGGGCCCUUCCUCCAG
-1

API: above_or_equal(metric=3' UTR reporter interaction score, cutoff=-0.4) for item GAAGGCGCUUCCCUUUAGAGC
1

Decide: is the reported value of 3' UTR reporter interaction score for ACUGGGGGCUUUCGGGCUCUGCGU equal to or greater than -0.4?
-1

API: above_or_equal(metric=3' UTR reporter interaction score, cutoff=-0.4) for item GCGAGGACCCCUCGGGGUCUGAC
1

Determine whether this sequence has 3' UTR reporter interaction score no lower than -0.4: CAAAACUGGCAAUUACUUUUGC
-1

Has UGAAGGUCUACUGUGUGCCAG a recorded 3' UTR reporter interaction score greater than or equal to -0.4?
1

Determine whether measured 3' UTR reporter interaction score meets or exceeds -0.4 for UAUGGCACUGGUAGAAUUCACUG
1

Could you please find out whether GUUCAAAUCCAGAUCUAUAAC has 3' UTR reporter interaction score that meets -0.4 or exceeds it?
1

Can CCACACCGUAUCUGACACUUU be said to have 3' UTR reporter interaction score at or above -0.4?
1

Given UCCCUGAGACCCUUUAACCUGUG , state whether its 3' UTR reporter interaction score is at least -0.4.
-1

Given CUGCAAAGGGAAGCCCUUUCU , state whether its 3' UTR reporter interaction score is at least -0.4.
-1

I'd appreciate it if you could say whether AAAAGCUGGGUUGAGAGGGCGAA has 3' UTR reporter interaction score at least equal to -0.4.
-1

Does the sequence UGCUGACUCCUAGUCCAGGGC have recorded 3' UTR reporter interaction score that is -0.4 or more?
-1

# bool: 3' UTR reporter interaction score of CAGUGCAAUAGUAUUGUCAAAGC >= -0.4
1

I'd appreciate it if you could say whether UACCCUGUAGAACCGAAUUUGU has 3' UTR reporter interaction score at least equal to -0.4.
-1

Check if 3' UTR reporter interaction score >= -0.4 (inclusive). Item: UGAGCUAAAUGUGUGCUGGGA
1

Would you say UCACUCCUCUCCUCCCGUCUUCU shows 3' UTR reporter interaction score at minimum -0.4?
1

In plain terms: is recorded 3' UTR reporter interaction score at least -0.4 for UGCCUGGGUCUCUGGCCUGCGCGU ?
-1

Is it the case that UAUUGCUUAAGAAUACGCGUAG has 3' UTR reporter interaction score reaching or exceeding -0.4?
1

Hello, I need to know if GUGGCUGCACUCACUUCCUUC has measured 3' UTR reporter interaction score not below -0.4. Thanks!
1

Would you say AAAAUGGUUCCCUUUAGAGUGUU shows 3' UTR reporter interaction score at minimum -0.4?
1

Does the sequence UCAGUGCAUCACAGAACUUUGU have recorded 3' UTR reporter interaction score that is -0.4 or more?
-1

State whether the measured 3' UTR reporter interaction score reaches -0.4, counting equality as reaching it, for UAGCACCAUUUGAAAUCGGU
1

Hi team, for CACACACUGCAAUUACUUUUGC , is the recorded 3' UTR reporter interaction score at or above -0.4?
1

Could you please find out whether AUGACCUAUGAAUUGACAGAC has 3' UTR reporter interaction score that meets -0.4 or exceeds it?
-1

Reported 3' UTR reporter interaction score reaches at least -0.4 for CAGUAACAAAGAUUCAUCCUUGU ?
-1

3' UTR reporter interaction score >= -0.4 for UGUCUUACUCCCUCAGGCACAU ?
1

Hello, I need to know if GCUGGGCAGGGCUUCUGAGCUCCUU has measured 3' UTR reporter interaction score not below -0.4. Thanks!
1

Exam item: decide whether the reported 3' UTR reporter interaction score for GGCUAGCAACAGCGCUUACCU is at least -0.4.
1
